These measurements were taken from the supplement of paper PMC7877785.

- TEST_PROTOCOL: self-splicing fitness, log relative to wild type (ln ratio); higher = more splicing; Tetrahymena group I intron in knt gene, E. coli kanamycin selection, DiMSum; sequences stand for … in CUCUCU…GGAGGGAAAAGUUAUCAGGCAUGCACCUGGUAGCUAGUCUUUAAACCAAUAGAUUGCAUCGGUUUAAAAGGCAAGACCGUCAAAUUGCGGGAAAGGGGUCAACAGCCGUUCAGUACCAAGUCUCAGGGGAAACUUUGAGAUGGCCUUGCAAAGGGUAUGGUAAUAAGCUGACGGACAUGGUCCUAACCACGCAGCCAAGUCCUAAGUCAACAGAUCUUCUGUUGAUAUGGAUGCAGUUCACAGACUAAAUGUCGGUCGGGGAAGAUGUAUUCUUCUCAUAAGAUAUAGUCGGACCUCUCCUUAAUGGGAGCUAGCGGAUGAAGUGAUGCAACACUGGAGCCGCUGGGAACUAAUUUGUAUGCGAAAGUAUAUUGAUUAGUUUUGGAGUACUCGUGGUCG;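 note: selection with 25 µg/mL kanamycin versus none on LB agar overnight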
- RECORDED_CONDITIONS: 37 °C
Assign self-splicing fitness (ln) to each entry below.
Give bare numbers.

Would you please look over these solved cases?
[[record]]
sequence = "CAACAGCAAUAUUACGAUAG"
observed_result = 0.653

[[record]]
sequence = "UCAGAGCAAUAUUACGCAGG"
observed_result = 0.137

[[record]]
sequence = "CUGUAGCAAUAUUACGUCAG"
observed_result = -2.88


# batch size: 8; output self-splicing fitness (ln) per entry
1. GGUAAGCAAUAUUACGUCUG
2. GUCAAGCAAUAUUACGAGGU
3. UUUUAGCAAUAUUACGAGAG
4. UAAUAGCAAUAUUACGUAAU
5. UAUAAGCAAUAUUACGCGGG
6. AAAAAGCAAUAUUACGGUGC
7. UUACAGCAAUAUUACGGACG
8. UACCAGCAAUAUUACGUUAU

1. -1.51
2. -3.03
3. -0.225
4. -2.52
5. -1.89
6. -2.25
7. -0.00562
8. -2.26

====

- TEST_PROTOCOL: self-splicing fitness, log relative to wild type (ln ratio); higher = more splicing; Tetrahymena group I intron in knt gene, E. coli kanamycin selection, DiMSum; sequences stand for … in CUCUCU…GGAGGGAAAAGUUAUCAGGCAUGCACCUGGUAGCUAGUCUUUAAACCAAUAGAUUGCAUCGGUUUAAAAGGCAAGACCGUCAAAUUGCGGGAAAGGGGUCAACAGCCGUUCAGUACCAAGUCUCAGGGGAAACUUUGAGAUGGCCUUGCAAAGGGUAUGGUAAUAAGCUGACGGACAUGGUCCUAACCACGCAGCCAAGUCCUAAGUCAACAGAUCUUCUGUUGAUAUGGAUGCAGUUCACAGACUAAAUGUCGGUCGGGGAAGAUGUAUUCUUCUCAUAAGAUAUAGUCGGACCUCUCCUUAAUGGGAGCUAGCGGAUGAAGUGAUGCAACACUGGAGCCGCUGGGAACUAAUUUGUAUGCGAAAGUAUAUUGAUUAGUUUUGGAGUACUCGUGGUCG
- RECORDED_CONDITIONS: 37 °C
MEASURE_NAME: self-splicing fitness (ln)
Answers are plain numbers.

Would you please look over these solved cases?
[[record]]
sequence = "AACUAGCAAUAUUACGGCAU"
measure_name = "self-splicing fitness (ln)"
observed_result = -0.127

[[record]]
sequence = "CUUAAGCAAUAUUACGUGUU"
measure_name = "self-splicing fitness (ln)"
observed_result = -2.66

[[record]]
sequence = "GGCAAGCAAUAUUACGUUUC"
measure_name = "self-splicing fitness (ln)"
observed_result = -0.0706

[[record]]
sequence = "UGGGAGCAAUAUUACGUUGC"
measure_name = "self-splicing fitness (ln)"
observed_result = -1.53

[[record]]
sequence = "ACGUAGCAAUAUUACGACGA"
measure_name = "self-splicing fitness (ln)"
observed_result = -0.0557


# batch size: 3; output self-splicing fitness (ln) per entry
1. AUUAAGCAAUAUUACGAAGU
2. UGCUAGCAAUAUUACGAGUC
3. GGCGAGCAAUAUUACGAUCU

-0.565
-2.5
0.229
